Test system: CAKI-1 renal
METHOD_NOTES: NCI tumour cell line growth inhibition, 48 h
Reported TGI values for the following compounds.

Field: example entries. Status: answers known.
- O=C(CSc1nccc(=O)[nH]1)c1ccccc1: > 100 µM
- CC(=O)NC(Cc1cnc[nH]1)C(=O)N1CCCC1C(N)=O (centres undefined): > 100 µM

Please report the recorded TGI for O=C1Cc2c([nH]c3ccc([N+](=O)[O-])cc23)-c2ccccc2N1 .
> 95.7 µM

// repeat for CC#CC(OCC)(OCC)OCC and report
> 100 µM

Item: COc1ccc2cc(C(=O)Nc3ccc(O)c(C(=O)O)c3)ccc2c1OC
> 100 µM

Next: CCOC(=O)c1sc2nc(SC)nc(N3CCCCC3)c2c1N
> 100 µM

// repeat for Cc1cc(C(=O)NC(C)(C)C)cc(C#Cc2ccc3c4c(oc3c2)C(C)(C)c2cc(NS(C)(=O)=O)ccc2C4=O)n1 and report
> 100 µM

Lookup CCCOP1(=O)C=CC(Cl)=C(C)C1 (centres undefined)
> 95.9 µM

What do you get for CNc1cc(OCc2ccccc2)c(OC)cc1C(=O)N1CCC[C@H]1CO ?
> 100 µM

---

Tested on: SK-MEL-5 melanoma
METHOD_NOTES: NCI tumour cell line growth inhibition, 48 h
# maps each entry to its TGI
Answer in µM, number only, no unit symbol.

Worked cases, TGI given:
- NCCCCCCn1c2c(c3ccccc3c1=O)C(=O)c1ccccc1-2: 2.75
- CC(C)=CCC/C(C)=C/CC/C(C)=C/CCN(C)CCO: 3.44
- OCC#Cc1ccccc1C#CCCCCCCC#Cc1ccccc1C#CCO: 31.3

Could you share which TGI value was measured for Cc1coc2c1[C@@H](O)[C@@]1(C)[C@H](CCC[C@@H]1C)C2 ?
77.5

Try the compound O=C(COc1cccc(/C=C2/Oc3ccccc3C2=O)c1)Nc1nccs1
35.2

How about this compound: CC(=O)N1N=C(c2cc(C)ccc2O)CC1c1cccc(Cl)c1 (configuration not stated)
27.8

Cool, now O=C1/C(=C/c2cccc([N+](=O)[O-])c2)N=C(c2ccccc2)N1c1nc2c(Cl)cc(Cl)cc2s1
33.5

---

Tested on: HCT-15 colon
METHOD_NOTES: NCI tumour cell line growth inhibition, 48 h
Listed compounds paired with reported TGI

Solved entries:
- CC1=NN(c2nc(N)nc(COCc3nc(N)nc(N4N=C(C)CC4(C)C)n3)n2)C(C)(C)C1: > 100 µM
- Cc1ccccc1OCC(COC(=O)Nc1ccccc1)OC(=O)Nc1ccccc1 (stereo not drawn): > 100 µM

Fill in the blank: the reported TGI of Cc1c(C(=O)O)nc(/C=C/C(=O)O)[nH]c1=O is ____.
> 100 µM

---

Test system: OVCAR-5 ovarian
METHOD_NOTES: NCI tumour cell line growth inhibition, 48 h
OBSERVATION_TYPE: TGI

Study these solved cases before continuing.
• CSCCC(NC(=O)CNC(=O)C(CC(=O)O)NC(=O)C(NC(=O)C(NC(=O)C(NC(=O)CNC(=O)C(CCC(N)=O)NC(=O)C(CCSC)NC(=O)C(CC(=O)O)NC(=O)C(C)NC(=O)C(C)NC(=O)C(NC(=O)C(CO)NC(=O)C(N)CC(C)C)C(C)O)C(C)C)C(C)C)C(C)O)C(=O)NC(C)C(=O)NC(CO)C(=O)NCC(=O)NC(CC(C)C)C(=O)NC(CC(=O)O)C(=O)NC(CCCCN)C(=O)NC(CC(=O)O)C(=O)NC(Cc1ccc(O)cc1)C(=O)NC(CC(C)C)C(=O)NC(CCCCN)C(=O)N1CCCC1C(=O)NC(CC(=O)O)C(=O)NC(CC(=O)O)C(=O)O (stereo not drawn) = > 82.5 µM
• CCOC(=O)C1C(=O)CC(O)(c2ccccc2)C(C(=O)OCC)C1c1ccc(N(C)C)cc1 (stereo not drawn) = > 100 µM

Now consider a different molecule.
Dear colleague, I am looking for the recorded TGI of the following molecule: [Co+2].[O-]c1ccccc1C=NCc1ccccc1.[O-]c1ccccc1C=NCc1ccccc1
> 100 µM

---

System: UACC-62 melanoma
METHOD_NOTES: NCI tumour cell line growth inhibition, 48 h
Where a SMILES comes first, the peptide text is derived from it. [ ]: non-standard residue; d: D form. The star is where a group is joined. Phe(4-NO2) = N[CH](Cc1ccc([N+](=O)[O-])cc1)C(=O)O; Boc = CC(C)(C)OC(=O)*; OtBu = CC(C)(C)O*
OBSERVATION_TYPE: TGI

• CC(=O)CC(O)(C(F)(F)Cl)C(F)(F)Cl = > 10 µM
• C[C@H](O)CNc1cc(-c2[nH]c3cccnc3c2-c2ccc(F)cc2)ccn1 = > 25 µM
• CCOc1cc(C(c2c(O)c3ccccc3oc2=O)c2c(O)c3ccccc3oc2=O)ccc1OC = 33.2 µM
• CCOC(=O)C(Cc1ccc([N+](=O)[O-])cc1)NC(=O)CC1c2ccccc2-c2ccccc21 (centres undefined) = > 100 µM
• O=C1/C(=C/c2cccc([N+](=O)[O-])c2)N=C(c2ccccc2)N1c1nc2c(Cl)cc(Cl)cc2s1 = > 100 µM
• O=C(CCc1n[nH]c(=S)o1)Nc1cc(Cl)c(Cl)cc1Cl = > 100 µM
• CCCCCC(/C=C/C1CCC(=O)C1)OCOCCOC (centres undefined) = > 100 µM
• CC(C)c1cccc(C(C)C)c1NC(=S)N=Nc1cc(C(C)(C)C)c(O)c(C(C)(C)C)c1 = 50 µM

Please find the next compound below.
Dear colleague, I am looking for the recorded TGI of the following compound: CC(=O)NC(CCC(=O)OC(C)(C)C)C(=O)NC(CCC(=O)OC(C)(C)C)C(=O)NC(Cc1ccc([N+](=O)[O-])cc1)C(=O)NC(CCCCNC(=O)OC(C)(C)C)C(=O)NC(CCCCNC(=O)OC(C)(C)C)C(=O)NCC(=O)O (centres undefined) (Ac-E(OtBu)E(OtBu)[Phe(4-NO2)]K(Boc)K(Boc)G-OH; configuration not given here)
> 100 µM

---

System: T-47D breast
METHOD_NOTES: NCI tumour cell line growth inhibition, 48 h
# TGI values compiled below

Known TGI results, listed for orientation:
• CCC1=C(C)c2cc3[n-]c(cc4nc(c(C=O)c5[n-]c(cc1n2)c(C)c5CC)C(C)=C4CC)c(C)c3CC.[Ni+2] = > 100 µM
• O=C(/C=C(\N=P(c1ccccc1)(c1ccccc1)c1ccccc1)C(F)(F)C(F)(F)C(F)(F)C(F)(F)C(F)(F)C(F)(F)C(F)(F)F)c1ccccc1 = > 100 µM
• Cc1ccc(-c2cc3c(NC(=O)C4CC4)ncnc3o2)cc1 = > 25 µM
• CCCCCCCCCCCC1=NCCN1 = > 100 µM
• CCCCCC(/C=C/C1CCC(=O)C1)OCOCCOC (stereo unspecified) = > 100 µM

Below: the item to evaluate.
Find TGI (T-47D breast) for the entry Cc1cc2c(c(C)c1O)C(C)(C)CN2C(=O)C(C)(C)C
> 100 µM

---

Tested on: DU-145 prostate
METHOD_NOTES: NCI tumour cell line growth inhibition, 48 h
The following molecules are shown together with reported TGI values.

- CCCCCCCCCCCCCCCCCCNc1ccn(C2OC(CO)C(OP(=O)(O)OCC(COP(=O)(O)OCC3OC(n4cc(F)c(NCCCCCCCCCCCCCCCCCC)nc4=O)CC3O)OC(=O)CCCCCCCCCCCCCCC)C2O)c(=O)n1 (stereo not drawn): > 100 µM
- CC1=CCCC(C)(O)C2CC(CCC3(C)OC3CC1)C(C)C(=O)O2 (stereo not drawn): > 100 µM

Item Cc1cn(CCCCCCOC(=O)NC(CCCN=C(N)N)C(=O)O)c(=O)[nH]c1=O (stereo not drawn) has what recorded TGI?
> 100 µM

---

Each item that follows carries a reported TGI.
Tested on: RPMI-8226 leukemia
METHOD_NOTES: NCI tumour cell line growth inhibition, 48 h

- CCOC(=O)C1N(S(=O)(=O)c2ccc(C)cc2)CCC12c1ccccc1NC2c1ccc(OC)c(OC)c1 (stereo not given): > 100 µM
- O=C(/C=C(\N=P(c1ccccc1)(c1ccccc1)c1ccccc1)C(F)(F)C(F)(F)C(F)(F)C(F)(F)C(F)(F)C(F)(F)C(F)(F)F)c1ccccc1: > 100 µM
- C[C@]12C=CC(=O)C=C1[C@@H](F)C[C@H]1[C@@H]3CC[C@](O)(C(=O)CO)[C@@]3(C)C[C@H](O)[C@@]12F: > 100 µM
- COc1ccc(/C=C2\N=C(SC)N(C)C2=O)cc1: > 100 µM

Here's the next entry for you.
State its TGI on RPMI-8226 leukemia: O=C(Nc1ccc(Cl)cc1)Nc1ccc(Oc2nncc3ccccc23)cc1
4.58 µM
